Recorded values, source patent US9399626B2.

- system.under.test: MPO (purified from human polynuclear leukocytes) (Homo sapiens, UniProt P05164)
- Construct: purified from human polynuclear leukocytes; purchased Calbiochem/EMD Biosciences; host or cells: human polynuclear leukocytes (natural source)
- Sequence (P05164 279-745 limits assumed): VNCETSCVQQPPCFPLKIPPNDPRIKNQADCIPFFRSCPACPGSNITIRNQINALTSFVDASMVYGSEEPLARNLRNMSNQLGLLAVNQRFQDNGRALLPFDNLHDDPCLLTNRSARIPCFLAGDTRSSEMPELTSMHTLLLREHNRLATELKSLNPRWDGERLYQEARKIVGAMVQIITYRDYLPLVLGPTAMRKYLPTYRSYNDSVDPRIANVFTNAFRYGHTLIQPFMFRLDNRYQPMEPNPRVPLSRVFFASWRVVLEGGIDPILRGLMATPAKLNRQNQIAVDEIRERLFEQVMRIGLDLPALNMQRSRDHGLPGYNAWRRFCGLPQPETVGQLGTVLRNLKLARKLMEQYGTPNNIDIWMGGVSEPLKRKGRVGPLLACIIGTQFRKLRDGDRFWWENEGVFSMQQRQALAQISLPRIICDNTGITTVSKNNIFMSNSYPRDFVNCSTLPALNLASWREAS
- Sequence (P05164 165-273 limits assumed): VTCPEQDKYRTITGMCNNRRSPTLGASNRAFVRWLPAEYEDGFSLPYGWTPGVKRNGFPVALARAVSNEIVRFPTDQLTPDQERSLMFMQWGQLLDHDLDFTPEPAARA
- assay.info: MPO Amplex Red Activity Assay
- Type: biochemical
- condition.notes: Table 1, 2 μM H2O2, pH 7.4
Counter-ions that a name gives are not always drawn.
value.kind: MPO kinact/Ki

                                    compound           result
 0  COc1ccc(-c2cc(=O)[nH]c(=S)n2Cc2ccccn2)c(OC)c1 [Example 230]   1740 1/s per M
 1  COc1ccc(-c2cc(=O)[nH]c(=S)n2CC2CCNCC2)c(OC)c1 [Example 235, hydrochloride]   2690 1/s per M
 2  COc1ccc(Cl)cc1-c1cc(=O)[nH]c(=S)n1CCCN=C(N)N [Example 133]  15300 1/s per M
 3  COCCn1c(-c2cccc(OC)c2OC)cc(=O)[nH]c1=S [Example 329]    963 1/s per M
 4  COc1ccc(-c2cc(=O)[nH]c(=S)n2CCNc2ncc[nH]2)c(OC)c1 [Example 249]   1050 1/s per M
 5  COc1ccc(-c2cc(=O)[nH]c(=S)n2CCCN)c(Cl)c1 [Example 91, hydrochloride]   9360 1/s per M
 6  COc1ccccc1-c1cc(=O)[nH]c(=S)n1CC(N)=O [Example 17]   4460 1/s per M
 7  COc1ccc(-c2cc(=O)[nH]c(=S)n2CCOC(C)C)cc1 [Example 172]   2950 1/s per M
 8  COc1ccc(-c2cc(=O)[nH]c(=S)n2CC(=O)NC(=N)N)c(OC)c1 [Example 236, trifluoroacetate]   5740 1/s per M
 9  COc1ccc(-c2cc(=O)[nH]c(=S)n2CC2(O)CCNCC2)c(OC)c1 [Example 252, hydrochloride]   2480 1/s per M
10  NCCCn1c(-c2cccc3ccoc23)cc(=O)[nH]c1=S [Example 34, hydrochloride]  13100 1/s per M
11  COc1cccc(OC)c1-c1cc(=O)[nH]c(=S)n1CCO [Example 167]  20300 1/s per M
12  COc1ccc(C)cc1-c1cc(=O)[nH]c(=S)n1CCCN=C(N)N [Example 119]  25600 1/s per M
13  COc1ccc(-c2cc(=O)[nH]c(=S)n2C[C@@H]2CCCN2)c(OC)c1 [Example 268, hydrochloride hydrochloride …]   6640 1/s per M
14  CNCCCn1c(-c2ccc(OC)cc2OC)cc(=O)[nH]c1=S [Example 192, hydrochloride]  10800 1/s per M
15  COCCn1c(-c2ccccc2F)cc(=O)[nH]c1=S [Example 158]   1750 1/s per M
16  COCCn1c(-c2cc3ccccc3n2C)cc(=O)[nH]c1=S [Example 66]   1580 1/s per M
17  COc1cc(OC)c(-c2cc(=O)[nH]c(=S)n2CCO)cc1F [Example 184]   5970 1/s per M
18  COc1ccc(-c2cc(=O)[nH]c(=S)n2CCN)c(Cl)c1 [Example 61, hydrochloride]   3530 1/s per M
19  COCCn1c(-c2ccc(C#N)cc2)cc(=O)[nH]c1=S [Example 13]    745 1/s per M
20  COCCn1c(-c2ccc(OC)c3nc(C)ccc23)cc(=O)[nH]c1=S [Example 345]    946 1/s per M
21  COCCn1c(-c2cc(OC)cc(OC)c2)cc(=O)[nH]c1=S [Example 330]   5210 1/s per M
22  COc1ccc(-c2cc(=O)[nH]c(=S)n2CC2CCCN2C(=O)CN)c(OC)c1 (centres unmarked) [Example 262, hydrochloride]   1730 1/s per M
23  COCCn1c(-c2cc(C#N)ccc2OC)cc(=O)[nH]c1=S [Example 171]   8590 1/s per M
24  COc1ccc(-c2cc(=O)[nH]c(=S)n2CC(N)=O)cc1OC [Example 83]   3510 1/s per M
25  COc1ccc(-c2cc(=O)[nH]c(=S)n2CCO)cc1 [Example 12]   5010 1/s per M
26  COc1ccc(Cl)cc1-c1cc(=O)[nH]c(=S)n1C[C@@H](O)CO [Example 116]   9920 1/s per M
27  COCCn1c(-c2ccc(C#N)cc2OC)cc(=O)[nH]c1=S [Example 70]   1590 1/s per M
28  COCCn1c(-c2ccc(C(=O)N(C)C)cc2)cc(=O)[nH]c1=S [Example 336]    589 1/s per M
29  COc1ccc(-c2cc(=O)[nH]c(=S)n2CCC(=N)N)c(OC)c1 [Example 187, trifluoroacetate]   5640 1/s per M
30  COCCn1c(-c2ccc3ccccc3c2)cc(=O)[nH]c1=S [Example 276]   6710 1/s per M
31  COc1ccc(-c2cc(=O)[nH]c(=S)n2CCN2CCOCC2)c(OC)c1 [Example 251]     68 1/s per M
32  COc1ncc(C)cc1-c1cc(=O)[nH]c(=S)n1CC(N)=O [Example 44]   3440 1/s per M
33  COc1ccc(-c2cc(=O)[nH]c(=S)n2C[C@@H](O)CN)c(OC)c1 [Example 200, trifluoroacetate]   4930 1/s per M
34  COCCn1c(-c2ccc3[nH]ccc3c2)cc(=O)[nH]c1=S [Example 303]   5270 1/s per M
